Test system: MDA-MB-231 breast
Experiment: NCI-60 one-dose screen, 48 h (100 = growth as untreated, 0 = no growth, -100 = all killed)
Details: 10 µM unless noted
About 83,000 compounds went through this panel and 20% of them were active in at least one assay; those are over-represented in the sample as a whole.
Rule: growth below 20% gives satisfied, anything at or above gives not satisfied.

// known answers, use as guide
INSERT INTO measurements (molecule, qualitative_label) VALUES
  ('COc1cc(/C=C2\CN(S(=O)(=O)c3ccccc3)C/C(=C\c3cc(CN4CCCC4)c(O)c(OC)c3)C2=O)cc(CN2CCCC2)c1O', 'satisfied'),
  ('CSc1nc2c(c(=O)n1C)N=C1c3ccccc3C(=O)C1C(c1ccccc1)N2 (stereo not given)', 'not satisfied'),
  ('O=C(CN1C=NC2C(N3CCOCC3)=NC=NC21)c1ccc(Br)cc1 (stereo not given)', 'not satisfied');

Data request: I wonder whether CN1CCN(Cc2ccc(NC(=O)c3[nH]ncc3Nc3cc(OC4CCCC4)ncn3)cc2)CC1 has growth below 20%. Can you tell?
Data returned: not satisfied

Data request: I wonder whether COc1ccc(CCN2CCC(CN(C)Cc3cnn(-c4ccccc4)c3)CC2)cc1 has growth below 20%. Can you tell?
Data returned: not satisfied

----------
Kindly state growth for each of the entries shown.
Tested on: NCI-H460 lung
Assay: NCI-60 one-dose screen, 48 h (100 = growth as untreated, 0 = no growth, -100 = all killed)
Conditions: 10 µM unless noted
Procedure: Growth inhibition of the NCI-H460 human Non-Small Cell Lung tumor cell line is measured as a screen for anti-cancer activity. Cells are grown in 96 well plates and exposed to the test compound for 48 hours. Compounds are tested at a single concentration, which is 10^-5 M for most compounds. The reported endpoint is percent growth (GI% or GIPRCNT), where numbers from 0 - 100% represent growth inhibition, and numbers from -100% - 0 represent cell death. […]
Compounds without any hit were thinned out: in the full panel of roughly 83,000, 20% have a hit. Activity calls are given as the source filed them. Rule for the calls: active = growth percent below 10; inactive = the rest.

INSERT INTO assay_data (compound, observed_measurement) VALUES
  ('O=C(Nc1ccccc1O)c1ccc(Oc2cccc(C(=O)Nc3ccccc3O)c2)cc1', '1.59% (active)'),
  ('COc1nc2c(c(=O)n1C)N=C1c3ccccc3C(=O)C1C(c1ccccc1)N2 (stereo unspecified)', '103% (inactive)');

Below are 3 compounds. Give each one its growth.
1. OC(c1ccccc1)c1nnc(SCc2ccccc2)n1Cc1ccccc1 (stereo unspecified)
2. O=c1oc2ccc(I)cc2c(=O)n1-c1ccc(I)cc1F
3. Cc1ccc(S(=O)c2ccc([N+](=O)[O-])c3nonc23)cc1 (stereo unspecified)

Data returned:
1. 106% (inactive)
2. 0.977% (active)
3. 99.5% (inactive)

Below are 6 compounds. Give each one its growth.
1. O=C(Nc1ccc(-c2nc3cc4ccccc4cc3[nH]2)cc1)c1cccc(Br)c1
2. Clc1ccc(Oc2ccc(Nc3ncnc4onc(-c5ccccc5)c34)cc2)c(Cl)c1
3. COc1cc(C(=O)NN=C2c3ccccc3-c3ccccc32)cc(OC)c1OC
4. CN(O)c1nc(N(C)O)nc(N2CCOCC2)n1
5. CCc1ccc(CNCC(O)c2ccccc2)cc1 (stereo unspecified)
6. COc1cc(C#N)cc2[nH]c(=O)oc12

Data returned:
1. 6.74% (active)
2. 101% (inactive)
3. 11.2% (inactive)
4. 8.62% (active)
5. 77% (inactive)
6. 110% (inactive)
